So I've got a bunch of molecules here, and I need their EC50 values.
# test system: S1P1 (Homo sapiens)
# Construct: expressed in transfected cells
# Sequence (P21453 whole entry, species assumed): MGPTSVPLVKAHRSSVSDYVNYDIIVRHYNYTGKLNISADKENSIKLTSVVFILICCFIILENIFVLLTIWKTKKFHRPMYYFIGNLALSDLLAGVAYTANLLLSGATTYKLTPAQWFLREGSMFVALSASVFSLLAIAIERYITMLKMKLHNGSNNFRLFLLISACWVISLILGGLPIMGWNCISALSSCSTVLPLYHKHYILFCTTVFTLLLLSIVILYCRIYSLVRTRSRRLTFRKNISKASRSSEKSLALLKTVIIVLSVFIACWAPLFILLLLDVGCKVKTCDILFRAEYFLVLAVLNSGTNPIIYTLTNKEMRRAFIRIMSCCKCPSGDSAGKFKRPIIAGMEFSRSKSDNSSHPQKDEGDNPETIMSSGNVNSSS
# method notes: FLIPR calcium assay, cells expressing S1P1 and a G-protein
# Format: cell-based
# assay context: fluo-4 calcium signal compared to sphingosine 1-phosphate
Structures can show the parent of a compound that is named as a salt.

Incoming: Give the measured EC50 of O=C(Nc1ccc(Br)cn1)C(Sc1ccc(Cl)cc1)c1ccc(Cl)cc1 (stereo not shown) [Example 22, hydrochloride] .
Outgoing: > 8300 nM

Incoming: Give the measured EC50 of O=C(Nc1ccc(Cl)cn1)C(Sc1ccc(Br)cc1)c1ccccc1 (stereo not shown) .
Outgoing: > 8300 nM

Incoming: Give the measured EC50 of O=C(Nc1ccc(Cl)cn1)C(Sc1ccc(Cl)cc1)c1ccc(Cl)cc1 (stereo not shown) [Example 23, hydrochloride] .
Outgoing: > 8300 nM

Incoming: Give the measured EC50 of O=C(Nc1ccc(Cl)cn1)C(Sc1ccc(Cl)cc1)c1ccccc1 (stereo not shown) .
Outgoing: > 8300 nM

====

# test system: S1P3 (Homo sapiens)
# Construct: expressed in transfected cells
# method notes: FLIPR calcium assay, cells expressing S1P3 and a G-protein
# Assay type: cell-based
# assay context: value in parentheses below the EC50; antagonism of sphingosine 1-phosphate signal
Where a name gives a salt, the structure may show the parent alone.
assay metric: FLIPR (% Antagonism) S1P3

Answered examples (5):
Cc1ccc(OC(C(=O)Nc2ccc(Br)cn2)c2ccc(Cl)cc2)cc1.Cl (centres unmarked) [Example 2] = (100) %
Cl.O=C(Nc1ccc(Cl)cn1)C(Oc1ccc(Br)cc1)c1ccc(Cl)cc1 (centres unmarked) [Example 6] = (97) %
COc1ccc(SC(C(=O)Nc2ccc(Br)cn2)c2ccc(Cl)cc2)cc1.Cl (centres unmarked) [Example 11] = (100) %
O=C(Nc1ccc(Br)cn1)C(Sc1ccc(F)cc1)c1ccc(Cl)cc1 (centres unmarked) [Example 14, hydrochloride] = (99) %
O=C(Nc1ccc(Cl)cn1)C(Sc1cccc(Cl)c1)c1ccccc1 (centres unmarked) [Example 21, hydrochloride] = (97) %

Incoming: Give the measured FLIPR (% Antagonism) S1P3 of COc1ccc(SC(C(=O)Nc2ccc(Cl)cn2)c2ccc(Cl)cc2)cc1 (centres unmarked) [Example 12, hydrochloride] .
Outgoing: (99) %

Incoming: Give the measured FLIPR (% Antagonism) S1P3 of Cc1ccc(NC(=O)C(Cc2ccccc2)c2ccccc2)nc1 (centres unmarked) [Example 32, hydrochloride] .
Outgoing: (99) %

====

# test system: S1P3 (Homo sapiens, UniProt Q99500)
# Construct: expressed in transfected cells
# Sequence (Q99500 whole entry, species assumed): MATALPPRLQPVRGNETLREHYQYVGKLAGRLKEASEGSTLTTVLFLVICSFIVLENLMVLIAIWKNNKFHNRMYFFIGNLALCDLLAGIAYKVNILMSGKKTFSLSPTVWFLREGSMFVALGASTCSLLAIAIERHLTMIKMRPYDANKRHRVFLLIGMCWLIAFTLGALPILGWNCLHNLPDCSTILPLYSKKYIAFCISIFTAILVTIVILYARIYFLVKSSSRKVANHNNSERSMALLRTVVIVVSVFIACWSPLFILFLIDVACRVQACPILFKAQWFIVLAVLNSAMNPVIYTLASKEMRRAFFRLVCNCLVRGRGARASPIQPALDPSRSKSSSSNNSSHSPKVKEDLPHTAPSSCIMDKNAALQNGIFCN
# method notes: FLIPR calcium assay, cells expressing S1P3 and a G-protein
# Assay type: cell-based
# assay context: value in parentheses below the EC50; antagonism of sphingosine 1-phosphate signal
Counter-ions that a name gives are not always drawn.
assay metric: FLIPR (% Antagonism) S1P3

Cl.O=C(Nc1ccc(F)cn1)C(Oc1ccc(Cl)cc1)c1ccc(Cl)cc1 (stereo not drawn) = (97) %
O=C(Nc1ccc(Br)cn1)C(Sc1ccc(Cl)cc1)c1ccc(Cl)cc1 (stereo not drawn) [Example 22, hydrochloride] = (97) %
O=C(Nc1ccc(Cl)cn1)C(Sc1ccc(Br)cc1)c1ccccc1 (stereo not drawn) = (99) %
O=C(Nc1ccc(I)cn1)C(Sc1ccccc1)c1ccccc1 (stereo not drawn) = (101) %
O=C(Nc1ccc(Br)cn1)C(Sc1ccc(Cl)c(Cl)c1)c1ccccc1 (stereo not drawn) = (97) %
O=C(Nc1ccc(Cl)cn1)C(Cc1ccccc1)c1ccccc1 (stereo not drawn) [Example 29, hydrochloride] = (101) %
Cc1cc(OC(C(=O)Nc2ccc(Cl)cn2)c2ccc(Cl)cc2)ccc1Cl.Cl (stereo not drawn) = (99) %

Incoming: Give the measured FLIPR (% Antagonism) S1P3 of Cl.O=C(Nc1ccc(Cl)cn1)C(Oc1ccc(Cl)cc1)c1ccc(Cl)cc1 (stereo not drawn) .
Outgoing: (97) %

These data points were gathered from patent US20120088800A1.
